Values were extracted from PubChem BioAssay (Tox21).

- measurementNotes: qHTS assay to identify small molecule antagonists of the retinoic acid receptor (RAR) signaling pathway (AID 1159552; further: nearly all actives have a fitted effect of over 50% in size)
- conditionSet: C3RL4 RARE luciferase reporter, retinol-stimulated, 6 h; series mostly up to 92.4 µM
Records with an inconclusive call do not appear. Active and inactive are the calls of the source. The call rests on the fitted dose curve; in most records, active means well fitted inhibition curve with a large enough effect in the repeat runs; inconclusive means weak or mixed curves, or effect the other way; inactive means no such curve, though single readings can be large or run the other way.
Pick one: true = active, false = inactive

Solved cases (3 shown):
Could you kindly confirm the outcome this assay logged for CCCCC(CC)COP(=O)(O)O (stereo not given) ?
false

For this molecule, state the assay outcome: O=C(O)CCCCCCCCCCCBr
false

How did this test come out for C=C1c2cccc(O)c2C(O)=C2C(=O)[C@]3(O)C(O)=C(C(N)=O)C(=O)[C@@H](N(C)C)[C@@H]3[C@@H](O)[C@H]12 ?
false

# ---- query molecule ----
Identify the outcome logged in this assay for the molecule shown: OC1(c2ccccc2)CCNCC1
false

---

- measurementNotes: qHTS assay for small molecules that induce genotoxicity in human embryonic kidney cells expressing luciferase-tagged ATAD5 (AID 651632); further: nearly all actives have a fitted effect of over 15% in size
- conditionSet: HEK293T ATAD5-luciferase induction, 16 h; series mostly up to 83.3 µM
Results filed as inconclusive are left out. Activity calls are given as the source filed them. Calls follow the shape of the dose curve; as a rule, active = well fitted activation curve with a large enough effect in the repeat runs; inconclusive = weak or mixed curves; inactive = no such curve, though single readings can be large or run the other way.
In this exercise, the only acceptable responses are 1 = active, -1 = inactive

Answered examples (5):
For CCC=CC#N , which call appears in the assay record?
-1

Record request — test call for CC(CCC(=O)O)C(=O)O (stereo not drawn)
-1

Field: outcome | Entry: Cc1cscn1
-1

Per the assay record, what outcome was assigned to CCCCCCCC/C=C\CCCCCCCCCCCC(=O)O ?
-1

Hello, I am checking results. What call was entered for CN1CCCN=C1COC(=O)C(O)(c1ccccc1)C1CCCCC1 (stereo not drawn) ?
-1

***
Tell me the assay call for Cc1ccc(OC(=O)c2ccccc2O)cc1 please.
-1

---

- measurementNotes: qHTS assay to identify small molecule antagonists of the thyroid receptor (TR) signaling pathway (AID 743065); further: nearly all actives have a fitted effect of over 55% in size
- conditionSet: GH3.TRE-Luc, T3-stimulated luciferase inhibition, 23.5 h; series mostly up to 70.3 µM
- Description: U.S. Tox21 Program National Center for Advancing Translational Sciences [NCATS] NIH Chemical Genomics Center [NCGC] U.S. Environmental Protection Agency [EPA] National Institutes of Environmental Health Sciences [NIEHS] National Toxicology Program [NTP] U.S. Food and Drug Administration [FDA] Tox21 Assay Overview: Thyroid receptor (TR), a nuclear hormone receptor, plays an important role in development, proliferation, differentiation, metabolism, brain function, and cardiovascular system. […]
Results filed as inconclusive are left out. Calls of active or inactive are those of the source. Calls follow the shape of the dose curve; as a rule, active = well fitted inhibition curve with a large enough effect in the repeat runs; inconclusive = weak or mixed curves; inactive = no such curve, though single readings can be large or run the other way.
Form entry, call: pick from class 1 = active, class 0 = inactive

Fill in: this test's call for CC(C)COCC(CN(Cc1ccccc1)c1ccccc1)N1CCCC1 (centres undefined) is ___
class 1

For CC[N+](CC)(CCNC(=O)C(=O)NCC[N+](CC)(CC)Cc1ccccc1Cl)Cc1ccccc1Cl , which call appears in the assay record?
class 0

Recorded test outcome, item NNC(=O)CP(=O)(c1ccccc1)c1ccccc1
class 0

Could you check what this test reported for c1ccc(C[n+]2cccc3ccccc32)cc1 ?
class 0

Could you kindly confirm the outcome this assay logged for COc1cc(C(=O)NCCCCCC(=O)O)cc(OC)c1OC ?
class 0

For this molecule, state the assay outcome: CCOC(=O)C1=C(C)NC(C)=C(C(=O)OC)C1c1cccc(Cl)c1Cl (centres undefined)
class 1

I would be grateful if you could indicate the recorded call for CN1CCCC(CC2c3ccccc3Sc3ccccc32)C1 (centres undefined) .
class 1

Name the outcome recorded for c1ccc2c(c1)CCc1ccccc1N2 in the assay.
class 0

Outcome? CC1=Nc2ccc3ccccc3c2C1(C)C
class 0

Test call for this molecule, please: C=C1CCC2CC1C2(C)C (centres undefined)
class 0

Hi team, can someone confirm the assay call for FC(F)(F)c1ccccc1Cl ?
class 0

What outcome does the record of this test show for CC(CO)CO ?
class 0

What did the test return for CCN(CC)CCNC(=O)COc1ccc(OC)cc1 ?
class 0

Entry CCOC(=O)c1ccccc1C(=C1C=C(Br)C(=O)C(Br)=C1)c1cc(Br)c(O)c(Br)c1 : call = ?
class 1
